Measured IC50, listed per entry.
- Experimental System: KDR (baculovirus expressed human KDR kinase domain D807-V1356) (Homo sapiens, UniProt P35968);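 further: Luciferase-coupled chemiluminescent kinase assay, activity read as percent ATP left after 4 h reaction at ambient temperature, ATP near KM, 10-point dose-response in 384-well plates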
- Construct: human KDR kinase domain D807-V1356; host or cells: baculovirus expression
- Sequence (P35968 807-1356): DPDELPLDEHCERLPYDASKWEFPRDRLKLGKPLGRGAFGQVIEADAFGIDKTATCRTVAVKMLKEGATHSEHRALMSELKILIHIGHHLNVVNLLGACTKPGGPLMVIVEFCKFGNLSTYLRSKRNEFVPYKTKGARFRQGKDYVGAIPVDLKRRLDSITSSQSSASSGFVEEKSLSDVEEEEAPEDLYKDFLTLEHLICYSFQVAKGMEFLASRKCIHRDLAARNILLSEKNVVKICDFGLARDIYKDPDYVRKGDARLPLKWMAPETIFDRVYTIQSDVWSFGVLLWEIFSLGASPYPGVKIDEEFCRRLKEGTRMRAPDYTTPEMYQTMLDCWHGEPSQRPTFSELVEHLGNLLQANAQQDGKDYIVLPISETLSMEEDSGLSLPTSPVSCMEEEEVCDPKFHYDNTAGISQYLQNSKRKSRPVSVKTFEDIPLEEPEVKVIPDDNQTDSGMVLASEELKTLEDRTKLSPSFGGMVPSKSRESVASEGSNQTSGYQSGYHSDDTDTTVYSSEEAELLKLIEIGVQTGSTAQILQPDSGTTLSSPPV
- Experimental Details: biochemical

- Molecule: "CCN(C)C(=O)C(=O)Nc1ccc(Oc2ccnc3cc(OCC4CCNCC4)c(OC)cc23)c(F)c1"
  IC50: "50 to 500 nM"
- Molecule: "O=C(Nc1ccc(F)cc1)C1(C(=O)Nc2ccc(Oc3ccnc4cc(Cl)ccc34)cc2)CC1"
  IC50: "< 50 nM"
- Molecule: "CCN(CC)CCCOc1cc2ncnc(Oc3ccc(NC(=O)C4(C(=O)Nc5ccc(F)cc5)[C@H](C)[C@H]4C)cc3F)c2cc1OC (some centres unmarked)"
  IC50: "< 50 nM"
- Molecule: "COc1cc2c(Oc3ccc(NC(=O)C4(C(=O)Nc5ccc(F)cc5)CCC4)cc3F)ncnc2cc1OCCCN1CCNCC1"
  IC50: "< 50 nM"
- Molecule: "COc1cc2nccc(Oc3ccc(NC4=NC(Cc5ccccc5)CO4)cc3)c2cc1OC (centres unmarked)"
  IC50: "50 to 500 nM"
- Molecule: "CCN(CC)CCCOc1cc2nccc(Oc3ccc(NC(=O)C4(C(=O)Nc5ccc(F)cc5)CCC4)cc3F)c2cc1OC"
  IC50: "< 50 nM"
- Molecule: "COc1cc2c(Oc3ccc(NC(=O)C4(C(=O)Nc5ccc(F)cc5)CC4)cc3F)ccnc2cc1OCCCN1CCNCC1"
  IC50: "< 50 nM"
- Molecule: "COc1cc2nccc(Oc3c(F)cc(NC(=O)C4(C(=O)Nc5ccc(F)cc5)CC4)c(F)c3F)c2cc1OC"
  IC50: "< 50 nM"
- Molecule: "CCN(CC)CCCOc1cc2nccc(Oc3ccc(NC(=O)C4(C(=O)Nc5ccc(F)cc5)CC4)cc3F)c2cc1OC"
  IC50: "< 50 nM"
- Molecule: "COc1cc2c(Oc3ccc(NC(=O)[C@@]4(C(=O)Nc5ccc(F)cc5)[C@H](C)[C@@H]4C)cc3F)ccnc2cc1OCCCN1CCN(C)CC1"
  IC50: "50 to 500 nM"
- Molecule: "COc1cc2nc(C)nc(Oc3ccc(NC(=O)C4(C(=O)Nc5ccc(F)cc5)CC4)cc3)c2cc1OC"
  IC50: "500 to 5000 nM"
- Molecule: "CCN(CC)CCOc1cc2ncnc(Oc3ccc(NC(=O)C4(C(=O)Nc5ccc(F)cc5)[C@H](C)[C@H]4C)cc3F)c2cc1OC (some centres unmarked)"
  IC50: "< 50 nM"
- Molecule: "COc1cc2nccc(Oc3cc(C)c(NC(=O)C4(C(=O)Nc5ccc(F)cc5)CC4)cc3F)c2cc1OC"
  IC50: "50 to 500 nM"
- Molecule: "CCN(CC)CCCOc1cc2nccc(Oc3ccc(NC(=O)C4(C(=O)Nc5ccc(F)cc5)[C@H](C)[C@H]4C)cc3F)c2cc1OC (some centres unmarked)"
  IC50: "< 50 nM"
